Assay: Lethal dose in mice (LD50)
Format: toxicity, organism-based
Conditions: mouse, in vivo
Threshold-based label: LD50 under 800 mg/kg gives met, LD50 not under 800 mg/kg gives not met.

Solved cases below.
Smiles	Qualitative Label
NCC(=O)NCCSC(=O)C(Cl)(Cl)Cl.O=C(O)C(F)(F)F	met
Br.Br.NCCC(=O)NCCSSCCNC(=O)CCN	met

Now look at this entry.
Does `Br.CC(=O)SCCNC(=O)CCN` have LD50 strictly under 800 mg/kg?
met

----------
# LD50 listing for each entry below
Test: Lethal dose in mice (LD50)
Assay type: toxicity, organism-based
Conditions: mouse, in vivo
Write the number in mg/kg without appending the unit.

Compound	Unit Annotation	LD50
CC(=O)NCCSC(=O)CN.O=C(O)C(F)(F)F	mg/kg	1000
NCC(=O)NCCSC(=O)C(Cl)Cl.O=C(O)C(F)(F)F	mg/kg	800
C[C@H](N)C(=O)NCCSSCCNC(=O)[C@@H](C)N.O=C(O)C(F)(F)F.O=C(O)C(F)(F)F	mg/kg	1200

Entry `NCC(=O)NCCSC(=O)CCl.O=C(O)C(F)(F)F` , LD50 reported as 550

Entry `Br.Br.C[C@H](N)C(=O)NCCSSCCNC(=O)[C@@H](C)N` , LD50 reported as 800

Entry `CC(=O)SCCNC(=O)[C@H](C)N.O=C(O)C(F)(F)F` , LD50 reported as 1250
